// -Log EC50 collected for Adenosine A2 receptor (Homo sapiens, UniProt P29275+P29274)
// no unit, no text: just the number

Ask | So what does the record say about -Log EC50 for Nc1nc(OCCC2CCCC2)nc2c1ncn2C1O[C@@H](CO)[C@H](O)[C@@H]1O (some centres undefined) ?
Reply | 8.41

Ask | Likewise for "Nc1nc(Nc2ccccc2)nc2c1ncn2[C@@H]1O[C@H](CO)[C@@H](O)[C@H]1O" ?
Reply | 7.74

Ask | Likewise for "Nc1nc(Cl)nc2c1ncn2[C@@H]1O[C@H](CO)[C@@H](O)[C@H]1O" ?
Reply | 7.6

Ask | Likewise for COc1cc(OC)cc(C(CNc2ncnc3c2ncn3[C@@H]2O[C@H](CO)[C@@H](O)[C@H]2O)c2ccccc2C)c1 (some centres undefined) ?
Reply | 9.35

Ask | Likewise for Nc1nc(OCCC(=O)[C@H]2CC3CCC2C3)nc2c1ncn2C1O[C@@H](CO)[C@H](O)[C@@H]1O (some centres undefined) ?
Reply | 8.35

Ask | Likewise for Nc1nc(OCCC2CCCCC2)nc2c1ncn2C1O[C@@H](CO)[C@H](O)[C@@H]1O (some centres undefined) ?
Reply | 8.99

Ask | Likewise for "COc1nc(N)c2ncn([C@H]3O[C@@H](CO)[C@H](O)[C@@H]3O)c2n1" ?
Reply | 6.16

Ask | Likewise for Nc1nc(OCC2CCCCC2)nc2c1ncn2C1O[C@@H](CO)[C@H](O)[C@@H]1O (some centres undefined) ?
Reply | 6.75

Ask | Likewise for Nc1nc(OCCCC2CCCCC2)nc2c1ncn2C1O[C@@H](CO)[C@H](O)[C@@H]1O (some centres undefined) ?
Reply | 8.67

* * *

Target: Adenosine receptor A1 (Cavia porcellus, UniProt P47745)
Sequence (P47745 whole entry): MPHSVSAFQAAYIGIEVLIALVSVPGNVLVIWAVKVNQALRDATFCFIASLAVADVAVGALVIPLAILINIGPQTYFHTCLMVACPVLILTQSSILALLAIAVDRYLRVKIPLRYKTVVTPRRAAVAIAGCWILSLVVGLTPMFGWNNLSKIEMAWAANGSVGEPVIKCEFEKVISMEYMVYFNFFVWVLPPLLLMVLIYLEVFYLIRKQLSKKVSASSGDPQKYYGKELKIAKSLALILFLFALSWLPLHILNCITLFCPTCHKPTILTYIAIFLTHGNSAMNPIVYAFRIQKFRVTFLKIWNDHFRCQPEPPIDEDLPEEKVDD
Test: Prolongation of the stimulus-QRS interval by 50% of the maximum response at the Adenosine A1 receptor in langendorff guinea pig heart preparation
Format: functional
measured_attribute: pEC50
Notebook: values listed as pEC50 are -log10 of the concentration (mol/L).

Ask | So what does the record say about pEC50 for Nc1nc(OCCO)nc2c1ncn2C1O[C@@H](CO)[C@H](O)[C@@H]1O (some centres not stated) ?
Reply | 5.66

Ask | Likewise for CCCCOc1nc(N)c2ncn(C3O[C@@H](CO)[C@H](O)[C@@H]3O)c2n1 (some centres not stated) ?
Reply | 4.43

Ask | Likewise for Nc1nc(OC2CCCCC2)nc2c1ncn2C1O[C@@H](CO)[C@H](O)[C@@H]1O (some centres not stated) ?
Reply | 4.00

Ask | Likewise for CCCCCCOc1nc(N)c2ncn(C3O[C@@H](CO)[C@H](O)[C@@H]3O)c2n1 (some centres not stated) ?
Reply | 4.86

Ask | Likewise for CC(C)CCOc1nc(N)c2ncn(C3O[C@@H](CO)[C@H](O)[C@@H]3O)c2n1 (some centres not stated) ?
Reply | 4.18

Ask | Likewise for CCC(CC)CCOc1nc(N)c2ncn(C3O[C@@H](CO)[C@H](O)[C@@H]3O)c2n1 (some centres not stated) ?
Reply | 4.80

Ask | Likewise for CC#CCCOc1nc(N)c2ncn(C3O[C@@H](CO)[C@H](O)[C@@H]3O)c2n1 (some centres not stated) ?
Reply | 4.20

Ask | Likewise for Nc1nc(OCCCCC2CCCCC2)nc2c1ncn2C1O[C@@H](CO)[C@H](O)[C@@H]1O (some centres not stated) ?
Reply | 5.58

Ask | Likewise for CCC(C)Oc1nc(N)c2ncn(C3O[C@@H](CO)[C@H](O)[C@@H]3O)c2n1 (some centres not stated) ?
Reply | 3.05

Ask | Likewise for "O=C(Nc1ncnc2c1ncn2[C@@H]1O[C@H](CO)[C@@H](O)[C@H]1O)[C@H]1C[C@H]2CC[C@@H]1C2" ?
Reply | 8.27

Ask | Likewise for "Nc1nc(=O)[nH]c2c1ncn2[C@@H]1O[C@H](CO)[C@@H](O)[C@H]1O" ?
Reply | 5.94

Ask | Likewise for CCCOc1nc(N)c2ncn(C3O[C@@H](CO)[C@H](O)[C@@H]3O)c2n1 (some centres not stated) ?
Reply | 3.83

Ask | Likewise for CCCCCOc1nc(N)c2ncn(C3O[C@@H](CO)[C@H](O)[C@@H]3O)c2n1 (some centres not stated) ?
Reply | 4.34

Ask | Likewise for CCC(CC)COc1nc(N)c2ncn(C3O[C@@H](CO)[C@H](O)[C@@H]3O)c2n1 (some centres not stated) ?
Reply | 4.45

Ask | Likewise for CCOc1nc(N)c2ncn(C3O[C@@H](CO)[C@H](O)[C@@H]3O)c2n1 (some centres not stated) ?
Reply | 4.10

Ask | Likewise for "CCNC(=O)[C@H]1O[C@@H](n2cnc3c(N)nc(NCCc4ccc(CCC(=O)O)cc4)nc32)[C@H](O)[C@@H]1O" ?
Reply | 4.61

Ask | Likewise for CC(C)Oc1nc(N)c2ncn(C3O[C@@H](CO)[C@H](O)[C@@H]3O)c2n1 (some centres not stated) ?
Reply | 3.65

* * *

Target: Adenosine A2 receptor (Homo sapiens, UniProt P29275+P29274)
# thresholds on -Log EC50 define classes: lower range (below 7), middle range (7 to below 8), upper range (8 or more)

Ask | Given CCCOc1nc(N)c2ncn(C3O[C@@H](CO)[C@H](O)[C@@H]3O)c2n1 (stereo partly specified) , name the class its -Log EC50 places it in.
Reply | middle range

Ask | Likewise for CC1(C)C2CCC(C(=O)CCOc3nc(N)c4ncn(C5O[C@@H](CO)[C@H](O)[C@@H]5O)c4n3)C1C2 (stereo partly specified) ?
Reply | upper range

Ask | Likewise for CC(C)Oc1nc(N)c2ncn(C3O[C@@H](CO)[C@H](O)[C@@H]3O)c2n1 (stereo partly specified) ?
Reply | lower range

Ask | Likewise for Nc1nc(OCCCCC2CCCCC2)nc2c1ncn2C1O[C@@H](CO)[C@H](O)[C@@H]1O (stereo partly specified) ?
Reply | upper range

Ask | Likewise for CCCCOc1nc(N)c2ncn(C3O[C@@H](CO)[C@H](O)[C@@H]3O)c2n1 (stereo partly specified) ?
Reply | middle range

Ask | Likewise for CCOc1nc(N)c2ncn(C3O[C@@H](CO)[C@H](O)[C@@H]3O)c2n1 (stereo partly specified) ?
Reply | lower range

Ask | Likewise for CCCCCCOc1nc(N)c2ncn(C3O[C@@H](CO)[C@H](O)[C@@H]3O)c2n1 (stereo partly specified) ?
Reply | upper range

Ask | Likewise for CCC(CC)COc1nc(N)c2ncn(C3O[C@@H](CO)[C@H](O)[C@@H]3O)c2n1 (stereo partly specified) ?
Reply | lower range

Ask | Likewise for CC(C)CCCOc1nc(N)c2ncn(C3O[C@@H](CO)[C@H](O)[C@@H]3O)c2n1 (stereo partly specified) ?
Reply | upper range

Ask | Likewise for CCC(C)Oc1nc(N)c2ncn(C3O[C@@H](CO)[C@H](O)[C@@H]3O)c2n1 (stereo partly specified) ?
Reply | lower range

Ask | Likewise for CC#CCCOc1nc(N)c2ncn(C3O[C@@H](CO)[C@H](O)[C@@H]3O)c2n1 (stereo partly specified) ?
Reply | middle range

Ask | Likewise for Nc1nc(OC2CCCCC2)nc2c1ncn2C1O[C@@H](CO)[C@H](O)[C@@H]1O (stereo partly specified) ?
Reply | lower range

Ask | Likewise for CC(C)CCOc1nc(N)c2ncn(C3O[C@@H](CO)[C@H](O)[C@@H]3O)c2n1 (stereo partly specified) ?
Reply | middle range

* * *

Target: Adenosine receptor A1 (Cavia porcellus, UniProt P47745)
Assay: Prolongation of the stimulus-QRS interval by 50% of the maximum response at the Adenosine A1 receptor in langendorff guinea pig heart preparation
Format: functional
measured_attribute: pEC50
Notebook: values listed as pEC50 are -log10 of the concentration (mol/L).

Ask | So what does the record say about pEC50 for CC(C)N(c1ccccc1)c1ncnc2c1ncn2C1O[C@H](CO)[C@@H](O)[C@H]1O (stereo not given in full) ?
Reply | 7.47

Ask | Likewise for CC(C)CCCOc1nc(N)c2ncn(C3O[C@@H](CO)[C@H](O)[C@@H]3O)c2n1 (stereo not given in full) ?
Reply | 4.64

Ask | Likewise for "Nc1nc(OC2CCCC2)nc2c1ncn2[C@H]1O[C@@H](CO)[C@H](O)[C@@H]1O" ?
Reply | 4.10

Ask | Likewise for CC1(C)C2CCC(C(=O)CCOc3nc(N)c4ncn(C5O[C@@H](CO)[C@H](O)[C@@H]5O)c4n3)C1C2 (stereo not given in full) ?
Reply | 5.35

Ask | Likewise for CC(C)COc1nc(N)c2ncn(C3O[C@@H](CO)[C@H](O)[C@@H]3O)c2n1 (stereo not given in full) ?
Reply | 3.97

Reference for the values: ChEMBL document CHEMBL1125661
